assay: Bioavailability in rat (Sprague-Dawley) (dose 10 mg/kg); type: ADME, organism-based; settings: in vivo
test_readout: bioavailability (%)

Below, each entry is followed by its recorded bioavailability result.
N=C(N)c1ccc2cc(C(=O)Nc3ccccc3)cc(-c3ccoc3)c2c1 = 0
N=C(N)c1ccc2cc(C(=O)Nc3ccccc3)cc(Br)c2c1 = 0
N=C(N)c1ccc2cc(C3CC3c3ccc4c(c3)C(C3CCCCC3)=NCC4)ccc2c1 (centres undefined) = 22
N=C(N)c1ccc2cc(CCc3ccccc3)cc(-c3ccoc3)c2c1 = 18

A = N=C(N)c1ccc2cc(C(=O)Nc3ccccc3)ccc2c1
B = CC1c2cc(C3CC3c3ccc4cc(C(=N)N)ccc4c3)ccc2CCN1C (centres undefined)
C = N=C(N)c1ccc2cc(C3CC3c3ccccc3)cc(Br)c2c1 (centres undefined)
D = CC(C)C1=NCCc2ccc(C3CC3c3ccc4cc(C(=N)N)ccc4c3)cc21 (centres undefined)
Which order do these items take when sorted by rising bioavailability? List them. In plain terms: list the labels in the order you were asked to.
B, A, C, D

FYI, the data here is from ChEMBL document CHEMBL1139552.
